Where these numbers come from: patent US20040235098A1

Target: SULT1A3 (Homo sapiens)
Sequence (P0DMM9 whole entry): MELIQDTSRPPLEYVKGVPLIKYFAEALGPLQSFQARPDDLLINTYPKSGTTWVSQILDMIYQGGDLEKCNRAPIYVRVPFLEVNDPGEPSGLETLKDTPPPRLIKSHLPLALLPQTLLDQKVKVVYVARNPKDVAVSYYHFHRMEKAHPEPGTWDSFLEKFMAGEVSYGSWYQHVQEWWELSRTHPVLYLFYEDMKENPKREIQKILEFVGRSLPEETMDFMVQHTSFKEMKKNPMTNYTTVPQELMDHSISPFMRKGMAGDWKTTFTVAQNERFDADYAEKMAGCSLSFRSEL
Assay: DCNP inhibition of recombinant SULT1A3 (COS-1 cell cytosol)
Conditions: 3000 μM 4-nitrophenol, mean±SEM of nine determinations
VALUE KIND: pIC50
FYI, pIC50 means -log10 of a concentration in mol per litre.

Item O=[N+]([O-])c1cc(Cl)c(O)c(Cl)c1 has what recorded pIC50?
4.06

---

Target: SULT1A1*3 (Homo sapiens, UniProt P50225)
Assay: DCNP inhibition of recombinant SULT1A1*3 (COS-1 cell cytosol)
Conditions: 4 μM 4-nitrophenol, mean±SEM of nine determinations
VALUE KIND: IC50 (nM)
Please give a number only; it is taken to be in nM.

Item O=[N+]([O-])c1cc(Cl)c(O)c(Cl)c1 has what recorded IC50?
1320
